- Test system: EGFR (human), P00533 [P753S; 747-752 del]
- Assay Text: KINOMEscan competition binding
- Conditions Used: compound 10.0 µM
Recorded kinase still bound, per cent of control, one value per entry.
Just the number in %, nothing appended.

Please review the following examples before continuing.
C=CC(=O)Nc1cccc(Nc2nc(N[C@H]3CC[C@H](N(C)C)CC3)nc3c2ncn3C(C)C)c1
90
COc1cc(N2CCC(C(N)=O)CC2)ccc1Nc1nc(N)c(Cl)c(Nc2ccccc2S(=O)(=O)C(C)C)n1
2.9
N#Cc1cc(-c2ccnc(Nc3ccc(-n4cnc(-c5cccnc5)n4)cc3)n2)cc(N2CCOCC2)c1
76
COc1ccc(N(C(=O)Oc2cc(C(=O)Nc3cccc(C(F)(F)F)c3)ccc2C)c2ccnc(Nc3ccc(N4CCN(C)CC4)cc3)n2)c(OC)c1
2.5
C=CC(=O)Nc1cc(NC(=O)c2ccc(C)c(NC(=O)c3ccno3)c2)cc(C(F)(F)F)c1
79

Fill in: EGFR (human), P00533 [P753S; 747-752 del] kinase still bound, per cent of control for CN(C)C/C=C/C(=O)Nc1ccc(C(=O)Nc2cccc(Nc3nccc(-c4cccnc4)n3)c2)cc1 = 96

Summary: Nc1ccc(-c2ccc3ncc4ccc(=O)n(-c5cccc(C(F)(F)F)c5)c4c3c2)cn1 , EGFR (human), P00533 [P753S; 747-752 del], kinase still bound, per cent of control = 98

EGFR (human), P00533 [P753S; 747-752 del] data for COc1cc(C(=O)NC2CCN(C)CC2)ccc1Nc1ncc2c(n1)N(C1CCCC1)C(C)CC(=O)N2C (centres undefined) ; its kinase still bound, per cent of control: 100

Value (kinase still bound, per cent of control, EGFR (human), P00533 [P753S; 747-752 del]) for record C=CC(=O)Nc1ccc(C(=O)c2sc(Nc3ccc(N4CCN(C)CC4)cc3OC)nc2N)cc1 = 81

Bench note, EGFR (human), P00533 [P753S; 747-752 del]: entry NC(=O)Nc1cc(-c2cccc(F)c2)sc1C(=O)N[C@@H]1CCCNC1 , its kinase still bound, per cent of control = 4.6

Entry COc1cc2ncn(-c3cc(OCc4ccccc4C(F)(F)F)c(C(N)=O)s3)c2cc1OC , tested on EGFR (human), P00533 [P753S; 747-752 del], has a reported kinase still bound, per cent of control of 63

GET /values?item= COc1cc(N2CCN(C)CC2)ccc1Nc1nc(N)c(C(=O)c2c(Cl)cccc2Cl)s1 &system= EGFR (human), P00533 [P753S; 747-752 del] returns kinase still bound, per cent of control: 89

Short answer on EGFR (human), P00533 [P753S; 747-752 del] for C[C@@H](Oc1cc(-n2cnc3ccc(CN4CCN(C)CC4)cc32)sc1C(N)=O)c1ccccc1C(F)(F)F , kinase still bound, per cent of control: 97

The compound Cn1c(=O)n(-c2ccc(C(C)(C)C#N)cc2)c2c3cc(-c4cnc5ccccc5c4)ccc3ncc21 on EGFR (human), P00533 [P753S; 747-752 del]: kinase still bound, per cent of control was 100

Hey, EGFR (human), P00533 [P753S; 747-752 del] data for CCN1CCN(Cc2ccc(Nc3ncc4c(n3)N(C)c3ccccc3C(=O)N4C)cc2C(F)(F)F)CC1 : kinase still bound, per cent of control came out at 79

Short answer on EGFR (human), P00533 [P753S; 747-752 del] for O=C(NOC[C@H](O)CO)c1ccc(F)c(F)c1Nc1ccc(I)cc1F , kinase still bound, per cent of control: 59
